test: in vivo; conditions: female, CD-1, mouse, 30 mg/kg, BALF AUC 0-t
MEASURED ENDPOINT: AUC(0-t)
Number plus unit, in that order.

Task item: If you can, please state the reported AUC(0-t) value of NCC(F)C[C@@H](N)CNC(=O)c1cc2ccc(-c3ccc(F)cc3)cc2[nH]1 (stereo partly shown) .
Reply: 13.2 µg·h/mL

----------
experiment: in vivo; conditions: female, CD-1, mouse, sc, 30 mg/kg, BALF AUC 0-t
MEASURED ENDPOINT: AUC(0-t)

Task item: If you can, please state the reported AUC(0-t) value of C[C@H]1COc2c(N3CCN(C)CC3)c(F)cc3c(=O)c(C(=O)O)cn1c23 [Levofloxacin, levofloxacin] .
Reply: 3900 ng·h/mL

----------
Could you please report measured inhibition at 3 min, 10 µM for the items listed next?
target: Cav1.2 (Homo sapiens, UniProt Q13936); construct: host or cells: HEK293; test: QPatch ion channel assay; format: cell-based; details: read-out: % Inhibition (n = 2), Cav1.2
Sequence (Q13936 whole entry): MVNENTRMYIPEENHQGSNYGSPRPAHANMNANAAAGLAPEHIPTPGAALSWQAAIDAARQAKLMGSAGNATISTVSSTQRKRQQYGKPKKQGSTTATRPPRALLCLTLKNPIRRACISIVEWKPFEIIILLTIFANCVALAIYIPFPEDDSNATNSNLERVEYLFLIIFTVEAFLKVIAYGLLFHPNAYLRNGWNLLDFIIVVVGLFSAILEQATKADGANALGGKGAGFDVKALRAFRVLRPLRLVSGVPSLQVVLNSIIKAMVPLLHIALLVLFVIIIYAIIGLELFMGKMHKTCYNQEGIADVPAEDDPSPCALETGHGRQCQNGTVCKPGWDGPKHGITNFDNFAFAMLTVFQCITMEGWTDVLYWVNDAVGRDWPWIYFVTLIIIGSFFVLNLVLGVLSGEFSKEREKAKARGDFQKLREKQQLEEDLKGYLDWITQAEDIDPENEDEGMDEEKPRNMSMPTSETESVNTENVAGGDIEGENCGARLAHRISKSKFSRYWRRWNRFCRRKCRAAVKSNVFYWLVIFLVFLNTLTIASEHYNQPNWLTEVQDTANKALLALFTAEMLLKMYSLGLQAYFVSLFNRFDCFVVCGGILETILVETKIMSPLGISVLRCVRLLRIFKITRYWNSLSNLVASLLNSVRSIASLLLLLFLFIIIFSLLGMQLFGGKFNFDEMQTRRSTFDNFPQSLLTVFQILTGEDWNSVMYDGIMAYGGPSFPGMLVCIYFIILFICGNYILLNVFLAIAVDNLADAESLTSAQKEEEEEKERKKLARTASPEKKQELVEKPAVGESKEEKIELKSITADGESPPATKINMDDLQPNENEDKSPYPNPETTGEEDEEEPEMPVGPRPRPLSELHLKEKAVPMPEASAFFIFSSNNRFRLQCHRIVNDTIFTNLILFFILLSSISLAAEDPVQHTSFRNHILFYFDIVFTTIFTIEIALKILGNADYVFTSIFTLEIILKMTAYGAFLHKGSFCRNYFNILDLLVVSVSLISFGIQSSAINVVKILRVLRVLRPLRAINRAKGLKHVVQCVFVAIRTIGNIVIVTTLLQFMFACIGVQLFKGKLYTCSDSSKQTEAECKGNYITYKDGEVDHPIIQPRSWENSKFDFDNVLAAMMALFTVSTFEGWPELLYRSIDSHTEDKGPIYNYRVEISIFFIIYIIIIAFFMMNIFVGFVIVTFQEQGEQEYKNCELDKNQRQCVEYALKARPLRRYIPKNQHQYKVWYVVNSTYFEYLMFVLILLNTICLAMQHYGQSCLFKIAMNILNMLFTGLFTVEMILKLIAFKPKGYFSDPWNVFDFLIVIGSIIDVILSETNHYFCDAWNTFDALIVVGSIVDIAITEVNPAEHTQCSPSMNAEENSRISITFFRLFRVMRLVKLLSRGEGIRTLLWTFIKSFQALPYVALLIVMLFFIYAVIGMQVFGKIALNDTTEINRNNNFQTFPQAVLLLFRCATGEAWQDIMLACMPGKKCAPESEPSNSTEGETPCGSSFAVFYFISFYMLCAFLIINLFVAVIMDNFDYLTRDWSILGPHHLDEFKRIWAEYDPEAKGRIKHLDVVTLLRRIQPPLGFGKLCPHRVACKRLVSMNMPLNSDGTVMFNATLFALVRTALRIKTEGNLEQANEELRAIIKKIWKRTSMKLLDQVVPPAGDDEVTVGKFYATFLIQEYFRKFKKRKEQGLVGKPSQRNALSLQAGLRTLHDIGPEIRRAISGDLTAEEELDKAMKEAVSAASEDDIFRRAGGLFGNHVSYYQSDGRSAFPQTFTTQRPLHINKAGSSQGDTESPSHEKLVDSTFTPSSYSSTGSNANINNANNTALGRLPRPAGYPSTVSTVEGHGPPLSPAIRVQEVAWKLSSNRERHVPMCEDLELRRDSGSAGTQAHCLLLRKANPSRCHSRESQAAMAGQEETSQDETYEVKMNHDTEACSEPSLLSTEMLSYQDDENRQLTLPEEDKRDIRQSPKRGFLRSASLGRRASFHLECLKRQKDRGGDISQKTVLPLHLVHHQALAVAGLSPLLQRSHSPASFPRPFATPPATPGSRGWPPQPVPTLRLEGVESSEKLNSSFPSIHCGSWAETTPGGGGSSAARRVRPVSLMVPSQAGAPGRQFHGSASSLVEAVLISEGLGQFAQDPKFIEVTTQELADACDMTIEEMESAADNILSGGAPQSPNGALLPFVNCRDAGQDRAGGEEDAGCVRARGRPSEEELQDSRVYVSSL
Sequence (Q08289 whole entry partner): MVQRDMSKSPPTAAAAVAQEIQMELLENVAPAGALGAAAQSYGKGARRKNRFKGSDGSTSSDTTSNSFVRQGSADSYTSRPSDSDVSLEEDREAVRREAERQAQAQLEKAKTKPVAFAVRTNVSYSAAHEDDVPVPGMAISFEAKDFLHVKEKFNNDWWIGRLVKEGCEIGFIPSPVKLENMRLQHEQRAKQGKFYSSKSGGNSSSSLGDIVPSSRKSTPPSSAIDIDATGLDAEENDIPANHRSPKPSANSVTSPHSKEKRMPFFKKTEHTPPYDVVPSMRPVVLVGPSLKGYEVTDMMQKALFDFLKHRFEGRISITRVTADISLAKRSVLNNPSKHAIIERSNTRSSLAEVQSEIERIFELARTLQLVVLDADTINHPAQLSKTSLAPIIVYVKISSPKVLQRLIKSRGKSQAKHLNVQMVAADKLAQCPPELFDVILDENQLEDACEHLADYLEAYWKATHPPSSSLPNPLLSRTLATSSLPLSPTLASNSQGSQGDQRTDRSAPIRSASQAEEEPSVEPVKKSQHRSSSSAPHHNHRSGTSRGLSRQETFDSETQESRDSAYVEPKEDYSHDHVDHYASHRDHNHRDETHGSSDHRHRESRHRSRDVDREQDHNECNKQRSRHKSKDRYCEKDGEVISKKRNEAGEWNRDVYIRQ
Sequence (P54289 25-1103 partner): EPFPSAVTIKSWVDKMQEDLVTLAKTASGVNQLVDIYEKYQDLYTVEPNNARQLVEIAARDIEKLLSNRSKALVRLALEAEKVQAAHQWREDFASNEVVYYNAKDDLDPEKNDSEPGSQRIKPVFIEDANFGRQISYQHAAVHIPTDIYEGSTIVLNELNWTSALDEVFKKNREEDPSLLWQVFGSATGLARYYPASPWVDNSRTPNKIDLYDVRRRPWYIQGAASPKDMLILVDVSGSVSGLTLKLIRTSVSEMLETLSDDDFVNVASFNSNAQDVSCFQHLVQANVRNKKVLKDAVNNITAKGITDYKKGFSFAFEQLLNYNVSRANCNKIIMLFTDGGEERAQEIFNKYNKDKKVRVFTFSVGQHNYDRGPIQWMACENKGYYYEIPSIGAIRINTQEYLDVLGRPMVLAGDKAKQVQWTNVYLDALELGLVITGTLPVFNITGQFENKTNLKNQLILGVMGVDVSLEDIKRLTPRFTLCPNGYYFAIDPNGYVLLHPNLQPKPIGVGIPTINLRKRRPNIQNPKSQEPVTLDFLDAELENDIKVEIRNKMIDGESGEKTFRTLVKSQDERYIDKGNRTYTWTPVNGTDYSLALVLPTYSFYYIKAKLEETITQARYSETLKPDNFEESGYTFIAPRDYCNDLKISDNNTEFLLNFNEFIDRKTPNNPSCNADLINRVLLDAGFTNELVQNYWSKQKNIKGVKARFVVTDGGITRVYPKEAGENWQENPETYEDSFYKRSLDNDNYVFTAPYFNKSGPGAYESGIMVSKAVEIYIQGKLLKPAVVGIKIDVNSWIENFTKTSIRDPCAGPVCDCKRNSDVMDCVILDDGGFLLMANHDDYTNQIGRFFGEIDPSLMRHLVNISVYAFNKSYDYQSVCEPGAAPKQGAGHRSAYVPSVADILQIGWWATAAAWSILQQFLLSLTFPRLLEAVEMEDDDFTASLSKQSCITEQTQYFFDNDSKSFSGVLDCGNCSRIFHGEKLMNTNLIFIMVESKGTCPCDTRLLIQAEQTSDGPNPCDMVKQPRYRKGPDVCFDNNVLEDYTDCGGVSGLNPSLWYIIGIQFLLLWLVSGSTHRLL
Dear colleague, please return just the value in %, with no unit written.

Task item: Could you share what inhibition at 3 min, 10 µM was measured for "NC[C@@H]1CN[C@H](CNC(=O)c2cc3ccc(-c4ccc(F)cc4)cc3[nH]2)C1" , tested on Cav1.2 (Homo sapiens, UniProt Q13936)?
Reply: 12.7

Task item: Could you share what inhibition at 3 min, 10 µM was measured for NCC(F)C[C@@H](N)CNC(=O)c1cc2ccc(-c3ccc(F)cc3)cc2[nH]1 (some centres unmarked) , tested on Cav1.2 (Homo sapiens, UniProt Q13936)?
Reply: 0.2

----------
Could you please report measured Vd for the items listed next?
assay: in vivo; details: female, CD-1, mouse, 30 mg/kg, Plasma Vd
Dear colleague, please return just the value in L/kg, with no unit written.

Task item: If you can, please state the reported Vd value of "C[C@H]1COc2c(N3CCN(C)CC3)c(F)cc3c(=O)c(C(=O)O)cn1c23" .
Reply: 1.89

Task item: If you can, please state the reported Vd value of NCC(F)C[C@@H](N)CNC(=O)c1cc2ccc(-c3ccc(F)cc3)cc2[nH]1 (some centres unmarked) .
Reply: 2.5

----------
pIC50: −log10 of the molar value.
MEASURED ENDPOINT: pIC50

Task item: Could you share what pIC50 was measured for NCC(F)C[C@@H](N)CNC(=O)c1cc2ccc(-c3ccc(F)cc3)cc2[nH]1 (stereo partly shown) , tested on CYP2D6 (Homo sapiens)?
Reply: < 4.00

The measured values listed here are drawn from paper PMC13114161.
